# assay.system: ubiquitin (S. cerevisiae) (S. cerevisiae, UniProt P0CG63 1-76)
# assay.info: SPR
Consider the following binders; for each one, report its Kd.
Write it as a number; the unit µM goes unstated.

What value of Kd has been recorded for this entry: EKTPKLECCKYQVTFTDQKALQEHAAYHLALKLSEG (domain or fragment, S. cerevisiae, UniProt Q04049 545-580, looked up) [scPolη UBZ domain (a.a. 545–580) D570A, GST fusion]
23.6

For the binder shown here, EKTPKLECCKYQVTFTDQKALQEHADYHLFLKLSEG (domain or fragment, S. cerevisiae, UniProt Q04049 545-580, looked up) [scPolη UBZ domain (a.a. 545–580) A574F, GST fusion] , give the reported Kd.
38.6

Given the binder EKTPKLECCKYQVTFTDQKALQEHPDYHLALKLSEG (domain or fragment, S. cerevisiae, UniProt Q04049 545-580, looked up) [scPolη UBZ domain (a.a. 545–580) A569P, GST fusion] , what is its reported Kd?
43.1

Request the reported Kd associated with EKTPKLECCKYQVTFTDQKALQEAADYALALKLSEG (domain or fragment, S. cerevisiae, UniProt Q04049 545-580, looked up) [scPolη UBZ domain (a.a. 545–580) HH568,572AA, GST fusion]
22.2

I'd like to know its Kd. The binder in question is EKTPKLECCKYQVTFTDQKALQEHADYHLPLKLSEG (domain or fragment, S. cerevisiae, UniProt Q04049 545-580, looked up) [scPolη UBZ domain (a.a. 545–580) A574P, GST fusion]
55.3

Which Kd value belongs to EKTPKLECCKYQVTFTDQKALQEHADYHLALKLSEG (domain or fragment, UniProt Q04049 545-580, looked up) [minimal S. cerevisiae Polη UBZ domain (a.a. 545–580) with N-terminal GST tag, wild type] ?
14.6

Would you kindly share the measured Kd for EKTPKLEAAKYQVTFTDQKALQEHADYHLALKLSEG (domain or fragment, S. cerevisiae, UniProt Q04049 545-580, looked up) [scPolη UBZ domain (a.a. 545–580) CC552,553AA, GST fusion] ?
22.3

Field request: Kd | item: EKTPKLECCKYQVTFTDQKALPEHADYHLALKLSEG (domain or fragment, S. cerevisiae, UniProt Q04049 545-580, looked up) [scPolη UBZ domain (a.a. 545–580) Q566P, GST fusion]
48.4
